The measurements presented in this section are drawn from patent US10071964B2.

Molecular target: human recombinant butyrylcholinesterase (huBChE) (Homo sapiens)
Experiment: biochemical
Conditions: read-out: IC50 ± STD (μM) huBChE
Mark satisfied only when IC50 stays strictly below 0.4 µM. Values equal to the cut-off are not satisfied.

compound | group label
COCCN(CC1CCCN(C2Cc3ccccc3C2)C1)S(=O)(=O)c1ccc([N+](=O)[O-])cc1 (centres unmarked) | not satisfied
CNC(=O)c1ccccc1S(=O)(=O)N(CCOC)CC1CCCN(C2Cc3ccccc3C2)C1 (centres unmarked) | not satisfied
COCCN(CC1CCCN(C2Cc3ccccc3C2)C1)S(=O)(=O)c1cccc([N+](=O)[O-])c1 (centres unmarked) | not satisfied
COCCN(CC1CCCN(C2Cc3ccccc3C2)C1)S(=O)(=O)c1ccccc1 (centres unmarked) | satisfied
CN(CC1CCCN(Cc2ccc(F)cc2)C1)S(=O)(=O)c1ccc2ccccc2c1 (centres unmarked) | not satisfied
N#Cc1ccc(CN2CCCC(CNS(=O)(=O)c3ccc4ccccc4c3)C2)cc1 (centres unmarked) | not satisfied
O=S(=O)(NCC1CCCN(Cc2ccc(F)cc2)C1)c1ccc2ccccc2c1 (centres unmarked) | not satisfied
COCCN(CC1CCCN(C2Cc3ccccc3C2)C1)S(=O)(=O)c1ccc(N)cc1 (centres unmarked) | satisfied
COCCN(CC1CCCN(Cc2ccc(C#N)cc2)C1)S(=O)(=O)c1ccc2ccccc2c1 (centres unmarked) | not satisfied
COCCN(CC1CCCN(C2Cc3ccccc3C2)C1)S(=O)(=O)c1cccc(NC(C)=O)c1 (centres unmarked) | not satisfied
COCCN(CC1CCCN(C2Cc3ccccc3C2)C1)S(=O)(=O)c1ccc(NC(C)=O)cc1 (centres unmarked) | satisfied
Cc1nc(CN2CCCC(CNS(=O)(=O)c3ccc4ccccc4c3)C2)cs1 (centres unmarked) | satisfied
COCCN(CC1CCCN(C2Cc3ccccc3C2)C1)S(=O)(=O)c1ccc(F)cc1 (centres unmarked) | not satisfied
COCCN(CC1CCCN(Cc2ccc(N(C)C)cc2)C1)S(=O)(=O)c1ccc2ccccc2c1 (centres unmarked) | satisfied

---

Biological target: murine acetylcholinesterase (mAChE) (Mus musculus)
Experiment: Ellman's method enzyme assay, mAChE inhibition
Format: biochemical
Settings: Table 2, formula (II); substrate ATCI 500 μM; read-out: IC50 ± STD (μM) mAChE

item smiles | units of measure | IC50
O=S(=O)(NCC1CCN(Cc2ccccc2)CC1)c1ccc2ccccc2c1 | µM | 1.78

---

Biological target: murine acetylcholinesterase (mAChE) (Mus musculus, UniProt P21836)
Sequence (P21836 32-614): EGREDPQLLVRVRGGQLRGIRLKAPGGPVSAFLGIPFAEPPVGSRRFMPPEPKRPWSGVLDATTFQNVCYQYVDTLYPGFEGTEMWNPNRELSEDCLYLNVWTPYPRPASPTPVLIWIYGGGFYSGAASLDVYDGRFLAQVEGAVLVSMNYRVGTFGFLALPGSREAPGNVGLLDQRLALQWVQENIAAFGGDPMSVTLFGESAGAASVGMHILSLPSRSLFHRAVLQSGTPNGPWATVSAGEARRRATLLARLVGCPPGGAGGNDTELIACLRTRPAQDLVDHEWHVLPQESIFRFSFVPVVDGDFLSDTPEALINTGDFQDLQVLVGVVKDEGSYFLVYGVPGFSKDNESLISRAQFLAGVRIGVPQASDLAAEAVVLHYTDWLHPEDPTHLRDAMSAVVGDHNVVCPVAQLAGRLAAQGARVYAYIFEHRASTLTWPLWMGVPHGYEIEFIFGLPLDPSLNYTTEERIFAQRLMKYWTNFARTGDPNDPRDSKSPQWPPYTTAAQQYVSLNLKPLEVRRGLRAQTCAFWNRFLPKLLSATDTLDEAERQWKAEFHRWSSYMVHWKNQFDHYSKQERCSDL
Assay: Ellman's method enzyme assay, mAChE inhibition
Assay type: biochemical
Conditions: Table 2, formula (II); 10 μM compound; n.i. = no inhibition
measured property: % inhibition at 10 μM mAChE

molecule | result
COCCN(CC1CCCN(C2Cc3ccccc3C2)C1)S(=O)(=O)c1ccc(NC(C)=O)cc1 (centres unmarked) | n.i.
CCCCN(CC1CCCN(Cc2ccccc2)C1)S(=O)(=O)c1ccc2ccccc2c1 (centres unmarked) | n.i.
COCCN(CC1CCCN(Cc2ccc(N(C)C)cc2)C1)S(=O)(=O)c1ccc2ccccc2c1 (centres unmarked) | n.i.
COCCN(CC1CCCN(Cc2cccc(C#N)c2)C1)S(=O)(=O)c1ccc2ccccc2c1 (centres unmarked) | n.i.
COCCN(CC1CCCN(C2Cc3ccccc3C2)C1)S(=O)(=O)c1ccccc1C(=O)OC (centres unmarked) | n.i.
COCCN(CC1CCCN(C2Cc3ccccc3C2)C1)S(=O)(=O)c1ccc(N)cc1 (centres unmarked) | n.i.
COCCCN(CC1CCCN(Cc2ccccc2)C1)S(=O)(=O)c1ccc2ccc(OCC#N)cc2c1 (centres unmarked) | n.i.
COCCCN(CC1CCN(C2Cc3ccccc3C2)CC1)S(=O)(=O)c1ccc2ccccc2c1 | n.i.
COCCN(CC1CCCN(C2Cc3ccccc3C2)C1)S(=O)(=O)c1ccc(F)cc1 (centres unmarked) | n.i.
Cc1nc(CN2CCCC(CNS(=O)(=O)c3ccc4ccccc4c3)C2)cs1 (centres unmarked) | 71 ± 3.68%
CN(CC1CCCN(Cc2ccccc2)C1)S(=O)(=O)c1ccc2ccccc2c1 (centres unmarked) | n.i.
COCCN(CC1CCCN(Cc2cccc(F)c2)C1)S(=O)(=O)c1ccc2ccccc2c1 (centres unmarked) | n.i.
O=S(=O)(NCC1CCCN(Cc2ccc(F)cc2)C1)c1ccc2ccccc2c1 (centres unmarked) | 75 ± 4.19%
CCN(CC1CCCN(Cc2ccccc2)C1)S(=O)(=O)c1ccc2ccccc2c1 (centres unmarked) | n.i.
CNC(=O)c1ccccc1S(=O)(=O)N(CCOC)CC1CCCN(C2Cc3ccccc3C2)C1 (centres unmarked) | n.i.
COCCN(CC1CCCN(C2Cc3ccccc3C2)C1)S(=O)(=O)c1cccc(N)c1 (centres unmarked) | n.i.
COCCN(CC1CCCN(Cc2ccccc2)C1)S(=O)(=O)c1ccc2ccc(OC)cc2c1 (centres unmarked) | n.i.
Cc1cccc(CN2CCCC(CNS(=O)(=O)c3ccc4ccccc4c3)C2)c1 (centres unmarked) | 57 ± 3.55%
N#Cc1ccc(CN2CCCC(CNS(=O)(=O)c3ccc4ccccc4c3)C2)cc1 (centres unmarked) | n.i.
COCCN(CC1CCCN(Cc2ccccc2)C1)S(=O)(=O)c1ccc2ccccc2c1 (centres unmarked) | n.i.
COCCCN(CC1CCN(Cc2ccccc2)CC1)S(=O)(=O)c1ccc2ccccc2c1 | n.i.
O=S(=O)(NCC1CCCN(Cc2ccccc2)C1)c1ccc2ccccc2c1 (centres unmarked) | n.i.
COCCN(CC1CCCN(C2Cc3ccccc3C2)C1)S(=O)(=O)c1ccc2ccccc2c1 (centres unmarked) | 72 ± 0.86%

---

Biological target: human recombinant butyrylcholinesterase (huBChE) (Homo sapiens, UniProt P06276)
Sequence (P06276 29-602): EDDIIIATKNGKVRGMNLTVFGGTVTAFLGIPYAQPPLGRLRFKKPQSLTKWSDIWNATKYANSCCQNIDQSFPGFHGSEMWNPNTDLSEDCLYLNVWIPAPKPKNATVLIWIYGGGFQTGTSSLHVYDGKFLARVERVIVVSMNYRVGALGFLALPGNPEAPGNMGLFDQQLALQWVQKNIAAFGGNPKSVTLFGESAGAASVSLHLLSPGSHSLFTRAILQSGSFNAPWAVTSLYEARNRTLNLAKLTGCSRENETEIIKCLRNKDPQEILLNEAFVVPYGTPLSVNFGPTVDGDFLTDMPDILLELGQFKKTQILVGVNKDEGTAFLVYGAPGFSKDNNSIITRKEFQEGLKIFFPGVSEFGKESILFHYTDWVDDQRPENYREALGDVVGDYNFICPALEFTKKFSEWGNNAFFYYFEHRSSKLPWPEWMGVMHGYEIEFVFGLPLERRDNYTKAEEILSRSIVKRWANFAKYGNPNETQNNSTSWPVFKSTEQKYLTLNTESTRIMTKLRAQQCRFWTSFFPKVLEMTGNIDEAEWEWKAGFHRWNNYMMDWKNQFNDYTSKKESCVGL
Assay: biochemical
Conditions: read-out: IC50 ± STD (μM) huBChE
Mark label 1 only when IC50 stays strictly below 0.2 µM. Values equal to the cut-off are label 0.

compound | group label
O=S(=O)(NCC1CCCN(Cc2ccc(F)cc2Cl)C1)c1ccc2ccccc2c1 (centres unmarked) | label 0
CCN(CC1CCCN(Cc2ccccc2)C1)S(=O)(=O)c1ccc2ccccc2c1 (centres unmarked) | label 1
COCCN(CC1CCCN(Cc2ccccc2)C1)S(=O)(=O)c1cccc2ccccc12 (centres unmarked) | label 1
COCCN(CC1CCCN(Cc2ccc(F)cc2)C1)S(=O)(=O)c1ccc2ccccc2c1 (centres unmarked) | label 0
COCCN(CC1CCCN(Cc2cccc(C#N)c2)C1)S(=O)(=O)c1ccc2ccccc2c1 (centres unmarked) | label 0

---

IC50: recorded values
Target: human recombinant butyrylcholinesterase (huBChE) (Homo sapiens)
Experiment: biochemical
Conditions: read-out: IC50 ± STD (μM) huBChE
Excerpt: Ellman's method was used to evaluate the inhibitory activities of the synthesized compounds against the cholinesterases. […] As a substrate butyrylthiocholine (BTC) and acetylthiocholine (ATC) iodides were used for BChE and AChE, respectively. […] Potency of the inhibitor is expressed as a residual activity (RA) of the enzyme at the employed inhibitor's concentration, half maximal inhibitory concentration (IC50 value) and as an inhibition constant (Ki). […]

compound | IC50 / µM
COCCN(CC1CCCN(C2Cc3ccccc3C2)C1)S(=O)(=O)c1ccc(C)cc1 (stereo not shown) | 0.279
COCCCN(CC1CCCN(Cc2ccccc2)C1)S(=O)(=O)c1ccc2ccc(OCC#N)cc2c1 (stereo not shown) | 0.113
O=S(=O)(NCC1CCCN(Cc2ccncc2)C1)c1ccc2ccccc2c1 (stereo not shown) | 1.67
COCCN(CC1CCCN(C2Cc3ccccc3C2)C1)S(=O)(=O)c1ccc(OC)cc1 (stereo not shown) | 0.482
CCCCN(CC1CCCN(Cc2ccccc2)C1)S(=O)(=O)c1ccc2ccccc2c1 (stereo not shown) | 0.0355
COCCN(CC1CCCN(Cc2cccc(F)c2)C1)S(=O)(=O)c1ccc2ccccc2c1 (stereo not shown) | 0.0491
CCCN(CC1CCCN(Cc2ccccc2)C1)S(=O)(=O)c1ccc2ccccc2c1 (stereo not shown) | 0.0428
Cc1cccc(CN2CCCC(CNS(=O)(=O)c3ccc4ccccc4c3)C2)c1 (stereo not shown) | 0.287
COCCN(CC1CCCN(Cc2ccccc2)C1)S(=O)(=O)c1ccc2ccc(OC)cc2c1 (stereo not shown) | 0.156
COCCN(CC1CCCN(C2Cc3ccccc3C2)C1)S(=O)(=O)c1ccccc1C(=O)OC (stereo not shown) | 0.359
